These data points were gathered from patent US20230242662A1.

# Assayed system: T1, cynoCD46-His (cynomolgus, UniProt A0A2K5WCL8 35-328)
# T1 construct: extracellular domain; Immobilised by amine coupling on the SPR chip; not shown: His tag
# T1 sequence: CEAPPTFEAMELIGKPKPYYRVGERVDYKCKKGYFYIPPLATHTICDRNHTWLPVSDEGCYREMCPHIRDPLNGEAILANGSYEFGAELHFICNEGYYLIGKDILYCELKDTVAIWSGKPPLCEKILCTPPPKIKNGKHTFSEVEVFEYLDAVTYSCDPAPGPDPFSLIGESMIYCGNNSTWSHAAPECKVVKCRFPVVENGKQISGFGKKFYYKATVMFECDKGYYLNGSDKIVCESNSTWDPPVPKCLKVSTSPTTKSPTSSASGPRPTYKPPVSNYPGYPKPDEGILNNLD
# Assay name: SPR, cynoCD46-His immobilised, antibody as analyte, pH 7.4
Measured quantity: koff (s⁻¹)
All answers are understood in s⁻¹, so give the number only.

Exercise: What does the data say about its koff? Entry: Benchmark (BM) BA-133-00-01 (antibody, V domains shown, the killing assays used the ADC form; Conjugation site and payload are not described; also called BM (bench mark)) VH: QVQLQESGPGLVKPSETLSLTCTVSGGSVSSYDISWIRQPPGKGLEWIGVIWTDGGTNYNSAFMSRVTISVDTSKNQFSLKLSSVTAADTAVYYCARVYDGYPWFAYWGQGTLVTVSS VL: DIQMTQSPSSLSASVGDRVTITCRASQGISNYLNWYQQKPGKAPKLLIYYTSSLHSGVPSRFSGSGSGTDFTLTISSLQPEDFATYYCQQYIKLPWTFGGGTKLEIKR
Solution: 0.0011
